Test: Pharmacokinetic analysis in CD1 mice
Format: in vivo, male CD1 mice
Conditions: male, CD1, mouse; 20 mg/kg body weight, IP, plasma; read-out: AUC (bioavailability)
Description: Pharmacokinetic analysis of NSC30049 in CD1 mice was determined by Pharmaron, Inc. (Louisville, KY, USA). […] Concentrations of NSC49L in the plasma samples was analyzed using a LC-MS/MS method. […] The following pharmacokinetic parameters were calculated from the plasma concentration versus time data: T1/2, Cmax, AUClast, AUCinf, AUCextra%, Number of Points for Regression. […]
reportedEndpoint: AUC

1. ClC/C=C/C[N+]12CN3CN(CN(C3)C1)C2 [NSC49L]
1310 ng·h/mL

====

Known IC50 of a selection of compounds
tested on: HCoEpiC normal colonic epithelial cell line; experiment: Cell survival (MTT assay), HCoEpiC; assay type: cell-based; details: Homo sapiens, drug alone, 48 h
reportedEndpoint: IC50 (µM)

1) O=c1[nH]cc(F)c(=O)[nH]1 [5-FU, 5-fluorouracil]
513
2) ClC/C=C/C[N+]12CN3CN(CN(C3)C1)C2 [NSC49L]
31.9

====

assay: Pharmacokinetic analysis in CD1 mice; format: in vivo, male CD1 mice; details: male, CD1, mouse; 20 mg/kg body weight, IP, plasma
reportedEndpoint: Tmax (min)

1. ClC/C=C/C[N+]12CN3CN(CN(C3)C1)C2 [NSC49L]
4.98

====

test: Pharmacokinetic analysis in CD1 mice; assay type: in vivo, male CD1 mice; settings: male, CD1, mouse; 20 mg/kg body weight, IP, plasma
reportedEndpoint: Cmax (ng/mL)

1) ClC/C=C/C[N+]12CN3CN(CN(C3)C1)C2 [NSC49L]
5530
